Experiment: total protein half-life in vivo (active degradation + dilution); higher = more stable protein
Conditions: E. coli NCM3722 delta-smpB; growth: N-lim chemostat; doubling time 6 h
Response key: rule met means total protein half-life in vivo >= 6 h; rule not met means total protein half-life in vivo < 6 h.

MQERHTEQDYRALLIADTPIIDVRAPIEFEHGAMPAAINLPLMNNDERAAVGTCYKQQGSDAALALGHKLVAGEIRQQRMDAWRAACLQNPQGILCCARGGQRSHIVQSWLHAAGIDYPLVEGGYKALRQTAIQATIELAQKPIVLIGGCTGSGKTLLVQQQPNGVDLEGLARHRGSAFGRTLQPQLSQASFENLLAAEMLKTDARQNLRLWVLEDESRMIGSNHLPECLRERMTQAAIAVVEDPFEIRLERLNEEYFLRMHHDFTHAYGDEQGWQEYCEYLHHGLSAIKRRLGLQRYNELAARLDAALTTQLTTGSTDGHLAWLVPLLEEYYDPMYRYQLEKKAEKVVFRGEWAEVAEWVKAR = rule not met
MIKLSNITKVFHQGTRTIQALNNVSLHVPAGQIYGVIGASGAGKSTLIRCVNLLERPTEGSVLVDGQELTTLSESELTKARRQIGMIFQHFNLLSSRTVFGNVALPLELDNTPKDEVKRRVTELLSLVGLGDKHDSYPSNLSGGQKQRVAIARALASNPKVLLCDEATSALDPATTRSILELLKDINRRLGLTILLITHEMDVVKRICDCVAVISNGELIEQDTVSEVFSHPKTPLAQKFIQSTLHLDIPEDYQERLQAEPFTDCVPMLRLEFTGQSVDAPLLSETARRFNVNNNIISAQMDYAGGVKFGIMLTEMHGTQQDTQAAIAWLQEHHVKVEVLGYV = rule not met
MSSEKLYSPLKVGAITAANRIFMAPLTRLRSIEPGDIPTPLMAEYYRQRASAGLIISEATQISAQAKGYAGAPGIHSPEQIAAWKKITAGVHAENGHMAVQLWHTGRISHASLQPGGQAPVAPSALSAGTRTSLRDENGQAIRVETSMPRALELEEIPGIVNDFRQAIANAREAGFDLVELHSAHGYLLHQFLSPSSNHRTDQYGGSVENRARLVLEVVDAGIEEWGADRIGIRVSPIGTFQNTDNGPNEEADALYLIEQLGKRGIAYLHMSEPDWAGGEPYTDAFREKVRARFHGPIIGAGAYTVEKAETLIGKGLIDAVAFGRDWIANPDLVARLQRKAELNPQRAESFYGGGAEGYTDYPTL = rule not met
MKKVAIVGLGWLGMPLAMSLSARGWQVTGSKTTQDGVEAARMSGIDSYLLRMEPELVCDSDDLDALMDADALVITLPARRSGPGDEFYLQAVQELVDSALAHRIPRIIFTSSTSVYGDAQGTVKETTPRNPVTNSGRVLEELEDWLHNLPGTSVDILRLAGLVGPGRHPGRFFAGKTAPDGEHGVNLVHLEDVIGAITLLLQAPKGGHIYNICAPAHPARNVFYPQMARLLGLEPPQFRNSLDSGKGKIIDGSRICNELGFEYQYPDPLVMPLE [P0AD12] = rule not met

I'd appreciate it if you could say whether MIEILHEYWKPLLWTDGYRFTGVAITLWLLILSVVIGGVLALFLAIGRVSSNKYIQFPIWLFTYIFRGTPLYVQLLVFYSGMYTLEIVKGTEFLNAFFRSGLNCTVLALTLNTCAYTTEIFAGAIRSVPHGEIEAARAYGFSTFKMYRCIILPSALRIALPAYSNEVILMLHSTALAFTATVPDLLKIARDINAATYQPFTAFGIAAVLYLIISYVLISLFRRAEKRWLQHVKPSSTH [P0AEU3] has total protein half-life in vivo at least equal to 6 h. rule met

---

Test: total protein half-life in vivo (active degradation + dilution); higher = more stable protein
Conditions: wild type E. coli NCM3722; growth: N-lim chemostat; doubling time 12 h
propertyLabel: total protein half-life in vivo (h)
# output: bare number, implied unit h

Worked cases, answers included:
MVDQAQDTLRPNNRLSDMQATMEQTQAFENRVLERLNAGKTVRSFLITAVELLTEAVNLLVLQVFRKDDYAVKYAVEPLLDGDGPLGDLSVRLKLIYGLGVINRQEYEDAELLMALREELNHDGNEYAFTDDEILGPFGELHCVAALPPPPQFEPADSSLYAMQIQRYQQAVRSTMVLSLTELISKISLKKAFQK [P0AF10] = 5.95
MKAFNKLFSLVVASVLVFSLAGCGDKEESKKFSANLNGTEIAITYVYKGDKVLKQSSETKIQFASIGATTKEDAAKTLEPLSAKYKNIAGVEEKLTYTDTYAQENVTIDMEKVDFKALQGISGINVSAEDAKKGITMAQMELVMKAAGFKEVK = 9.71
MNTVCTHCQAINRIPDDRIEDAAKCGRCGHDLFDGEVINATGETLDKLLKDDLPVVIDFWAPWCGPCRNFAPIFEDVAQERSGKVRFVKVNTEAERELSSRFGIRSIPTIMIFKNGQVVDMLNGAVPKAPFDSWLNESL [P0AGG4] = 3.44

Now turn to the next sequence.
# query: total protein half-life in vivo of entry MTPEHLPTEQYEAQLAEKVVRLQSMMAPFSDLVPEVFRSPVSHYRMRAEFRIWHDGDDLYHIIFDQQTKSRIRVDSFPAASELINQLMTAMIAGVRNNPVLRHKLFQIDYLTTLSNQAVVSLLYHKKLDDEWRQEAEALRDALRAQNLNVHLIGRATKTKIELDQDYIDERLPVAGKEMIYRQVENSFTQPNAAMNIQMLEWALDVTKGSKGDLLELYCGNGNFSLALARNFDRVLATEIAKPSVAAAQYNIAANHIDNVQIIRMAAEEFTQAMNGVREFNRLQGIDLKSYQCETIFVDPPRSGLDSETEKMVQAYPRILYISCNPETLCKNLETLSQTHKVERLALFDQFPYTHHMECGVLLTAK 11.3

---

Assay: total protein half-life in vivo (active degradation + dilution); higher = more stable protein
Conditions: E. coli NCM3722 delta-lon; growth: N-lim chemostat; doubling time 6 h
Hi, to clarify the labels: MET covers total protein half-life in vivo from 6 h upward, NOT MET covers anything below 6 h.

Has MSEQLTDQVLVERVQKGDQKAFNLLVVRYQHKVASLVSRYVPSGDVPDVVQEAFIKAYRALDSFRGDSAFYTWLYRIAVNTAKNYLVAQGRRPPSSDVDAIEAENFESGGALKEISNPENLMLSEELRQIVFRTIESLPEDLRMAITLRELDGLSYEEIAAIMDCPVGTVRSRIFRAREAIDNKVQPLIRR [P0AGB6] a recorded total protein half-life in vivo greater than or equal to 6 h? MET

// next record MTHFSQQDNFSVAARVLGALFYYAPESAEAAPLVAVLTSDGWETQWPLPEASLAPLVTAFQTQCEETHAQAWQRLFVGPWALPSPPWGSVWLDRESVLFGDSTLALRQWMREKGIQFEMKQNEPEDHFGSLLLMAAWLAENGRQTECEELLAWHLFPWSTRFLDVFIEKAEHPFYRALGELARLTLAQWQSQLLIPVAVKPLFR NOT MET

Moving on to the next sequence: MTDKLTSLRQYTTVVADTGDIAAMKLYQPQDATTNPSLILNAAQIPEYRKLIDDAVAWAKQQSNDRAQQIVDATDKLAVNIGLEILKLVPGRISTEVDARLSYDTEASIAKAKRLIKLYNDAGISNDRILIKLASTWQGIRAAEQLEKEGINCNLTLLFSFAQARACAEAGVFLISPFVGRILDWYKANTDKKEYAPAEDPGVVSVSEIYQYYKEHGYETVVMGASFRNIGEILELAGCDRLTIAPALLKELAESEGAIERKLSYTGEVKARPARITESEFLWQHNQDPMAVDKLAEGIRKFAIDQEKLEKMIGDLL [P0A870] NOT MET

What would you report for MSKKIAVLITDEFEDSEFTSPADEFRKAGHEVITIEKQAGKTVKGKKGEASVTIDKSIDEVTPAEFDALLLPGGHSPDYLRGDNRFVTFTRDFVNSGKPVFAICHGPQLLISADVIRGRKLTAVKPIIIDVKNAGAEFYDQEVVVDKDQLVTSRTPDDLPAFNREALRLLGA ? NOT MET

Can you handle MTNNPLIPQSKLPQLGTTIFTQMSALAQQHQAINLSQGFPDFDGPRYLQERLAHHVAQGANQYAPMTGVQALREAIAQKTERLYGYQPDADSDITVTAGATEALYAAITALVRNGDEVICFDPSYDSYAPAIALSGGIVKRMALQPPHFRVDWQEFAALLSERTRLVILNTPHNPSATVWQQADFAALWQAIAGHEIFVISDEVYEHINFSQQGHASVLAHPQLRERAVAVSSFGKTYHMTGWKVGYCVAPAPISAEIRKVHQYLTFSVNTPAQLALADMLRAEPEHYLALPDFYRQKRDILVNALNESRLEILPCEGTYFLLVDYSAVSTLDDVEFCQWLTQEHGVAAIPLSVFCADPFPHKLIRLCFAKKESTLLAAAERLRQL next? NOT MET

Next record, please: MKLISNDLRDGDKLPHRHVFNGMGYDGDNISPHLAWDDVPAGTKSFVVTCYDPDAPTGSGWWHWVVVNLPADTRVLPQGFGSGLVAMPDGVLQTRTDFGKTGYDGAAPPKGETHRYIFTVHALDIERIDVDEGASGAMVGFNVHFHSLASASITAMFS NOT MET

FYI, the data here is from the supplement of paper PMC11246515.
